Reported values of growth for individual entries
- Test system: HOP-62 NSCLC
- protocol-summary: NCI-60 one-dose screen, 48 h (100 = growth as untreated, 0 = no growth, -100 = all killed)
- condition-parameters: 10 µM unless noted
Compounds without any hit were thinned out: in the full panel of roughly 83,000, 20% have a hit. Calls of active or inactive are those of the source. The calls were made as follows: active = growth percent below 10; inactive = the rest.

>  <molecule>
O=C(N=Nc1c(O)[nH]c2ccc(Cl)cc12)c1ccc2nc(-c3ccccc3)[nH]c2c1

>  <growth>
81.3% (inactive)

$$$$

Ask: Given CCCCOc1ccc(NC(=O)c2sc3nc(C)ccc3c2N)cc1 , state its recorded growth.
Reply: 21.9% (inactive)

Ask: Given Cc1ccc(C(SCCNCc2cc(N(C)C)ccn2)(c2ccccc2)c2ccccc2)cc1 , state its recorded growth.
Reply: -1.31% (active)

Ask: Given CCN(CC)C(=O)N/C(N)=N/c1nc2ccccc2s1 , state its recorded growth.
Reply: 68.9% (inactive)

Ask: Given CC(C)(C)OC(=O)/C=C/c1cccc2c1C(=O)NC(C)(c1cc3cc(Cl)ccc3oc1=O)N2 (stereo not drawn) , state its recorded growth.
Reply: 64% (inactive)

Ask: Given O=C(O)c1ccc(-c2ccc(/C=N/NC(=O)c3[nH]c4ccc(Br)cc4c3-c3ccccc3)s2)cc1 , state its recorded growth.
Reply: 28.5% (inactive)

Ask: Given CC(=O)OCC1OC(OC2C(COC(C)=O)OC(n3cc(COc4ccc5ccc(=O)oc5c4)nn3)C(OC(C)=O)C2OC(C)=O)C(OC(C)=O)C(OC(C)=O)C1OC(C)=O (stereo not drawn) , state its recorded growth.
Reply: 103% (inactive)

Ask: Given Cn1cc(-c2cc3nc(-c4cn(C)c5ncc(Br)cc45)cc(N)n3n2)c2ccccc21 , state its recorded growth.
Reply: -34.5% (active)
